Target: NRAS Q61R (Homo sapiens, UniProt P01111+P62937, Q61R)
Sequence (P01111 whole entry Q61R): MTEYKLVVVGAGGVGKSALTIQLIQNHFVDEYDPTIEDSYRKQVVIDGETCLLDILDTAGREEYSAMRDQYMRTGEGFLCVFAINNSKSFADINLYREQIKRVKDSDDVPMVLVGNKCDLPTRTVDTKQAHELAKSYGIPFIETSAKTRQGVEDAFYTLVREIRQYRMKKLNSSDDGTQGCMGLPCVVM
Sequence (P62937 whole entry): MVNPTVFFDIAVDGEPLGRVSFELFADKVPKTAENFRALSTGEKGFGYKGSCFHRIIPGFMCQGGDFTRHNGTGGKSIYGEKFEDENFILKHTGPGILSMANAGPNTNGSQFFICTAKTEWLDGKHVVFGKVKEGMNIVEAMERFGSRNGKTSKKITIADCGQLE
Assay: Ras-Raf disruption / FRET / MOA assay (BRAF RBD)
Assay type: biochemical
Conditions: NRAS Q61R; read-out: NRAS Q61R FRET data IC50
Readout Type: IC50

// compound CCn1c(-c2cccnc2[C@H](C)OC)c2c3cc(ccc31)-c1csc(n1)C[C@H](NC(=O)[C@H](C(C)C)N(C)C(=O)N1CC[C@H](N(C)C(=O)[C@@H]3CN3)C1)C(=O)N1CCC[C@H](N1)C(=O)OCC(C)(C)C2 (atropisomer, axis not shown) [Example 229] , assay NRAS Q61R (Homo sapiens, UniProt P01111+P62937, Q61R), IC50 value: 0.1 to 1 µM

// compound CCn1c(-c2cccnc2[C@H](C)OC)c2c3cc(ccc31)-c1csc(n1)C[C@H](NC(=O)[C@H](C(C)C)N(C)C(=O)N1CCCN(C(=O)[C@@H]3CN3)CC1)C(=O)N1CCC[C@H](N1)C(=O)OCC(C)(C)C2 (atropisomer, axis not shown) [Example 223] , assay NRAS Q61R (Homo sapiens, UniProt P01111+P62937, Q61R), IC50 value: 0.01 to 0.1 µM

// compound CCn1c(-c2cccnc2[C@H](C)OC)c2c3cc(ccc31)-c1cc(O)cc(c1)C[C@H](NC(=O)[C@H](C(C)C)N(C)C(=O)[C@H]1C[C@@H]3N[C@@H]3C1)C(=O)N1CCC[C@H](N1)C(=O)OCC(C)(C)C2 (atropisomer, axis not shown) [Example 286] , assay NRAS Q61R (Homo sapiens, UniProt P01111+P62937, Q61R), IC50 value: 0.1 to 1 µM

// compound CCn1c(-c2cccnc2[C@H](C)OC)c2c3cc(ccc31)-c1csc(n1)C[C@H](NC(=O)[C@H](C(C)C)N(C)C(=O)N(C)CCN(C)C(=O)[C@H]1CN1)C(=O)N1CCC[C@H](N1)C(=O)OCC(C)(C)C2 (atropisomer, axis not shown) [Example 216] , assay NRAS Q61R (Homo sapiens, UniProt P01111+P62937, Q61R), IC50 value: 0.1 to 1 µM

// compound CCn1c(-c2cccnc2[C@H](C)OC)c2c3cc(ccc31)-c1csc(n1)C[C@H](NC(=O)[C@H](C(C)C)N(C)C(=O)N1CCN(C(=O)[C@H]3CN3)[C@@H](C)C1)C(=O)N1CCC[C@H](N1)C(=O)OCC(C)(C)C2 [Example 297] , assay NRAS Q61R (Homo sapiens, UniProt P01111+P62937, Q61R), IC50 value: 0.01 to 0.1 µM

// compound CCn1c(-c2cccnc2[C@H](C)OC)c2c3cc(ccc31)-c1csc(n1)C[C@H](NC(=O)[C@H](C(C)C)N(C)C(=O)N1CCN(C(=O)[C@@H]3CN3)[C@@H](C)C1)C(=O)N1CCC[C@H](N1)C(=O)OCC(C)(C)C2 [Example 298] , assay NRAS Q61R (Homo sapiens, UniProt P01111+P62937, Q61R), IC50 value: 0.01 to 0.1 µM

// compound CCn1c(-c2cccnc2[C@H](C)OC)c2c3cc(ccc31)-c1cc(O)cc(c1)C[C@H](NC(=O)[C@@H](COC1CN(C(=O)[C@H]3CN3)C1)C(C)C)C(=O)N1CCC[C@H](N1)C(=O)OCC(C)(C)C2 [Example 312] , assay NRAS Q61R (Homo sapiens, UniProt P01111+P62937, Q61R), IC50 value: 1 to 10 µM

// compound CCn1c(-c2cccnc2[C@H](C)OC)c2c3cc(ccc31)-c1cc(O)cc(c1)C[C@H](NC(=O)[C@H](C(C)C)N(C)C(=O)N1C[C@@H]3[C@H]1CCN3C(=O)[C@H]1CN1)C(=O)N1CCC[C@H](N1)C(=O)OCC(C)(C)C2 (atropisomer, axis not shown) [Example 250] , assay NRAS Q61R (Homo sapiens, UniProt P01111+P62937, Q61R), IC50 value: 1 to 10 µM

These entries and their values trace back to patent US20230233569A1.
